System: DERL-7 (IL-2 2.5 ng/mL);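 note: normalised to DMSO-only wells as negative and benzethonium chloride as positive control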
Test: percent inhibition of viability; higher = more inhibition
Conditions: 72 h; 100 nM

molecule | percent inhibition of viability (%)
CN(C)/N=N/c1[nH]cnc1C(N)=O [Dacarbazine] (max concentration tested 10000 nM) | -9.81
CO[C@@H]1[C@H](N(C)C(=O)c2ccccc2)C[C@H]2O[C@]1(C)n1c3ccccc3c3c4c(c5c6ccccc6n2c5c31)C(=O)NC4 [Midostaurin] (max concentration tested 10000 nM) | 18.5
CO[C@H]1C[C@@H]2CC[C@@H](C)[C@@](O)(O2)C(=O)C(=O)N2CCCC[C@H]2C(=O)O[C@H]([C@H](C)C[C@@H]2CC[C@@H](O)[C@H](OC)C2)CC(=O)[C@H](C)/C=C(\C)[C@@H](O)[C@@H](OC)C(=O)[C@H](C)C[C@H](C)/C=C/C=C/C=C/1C [Sirolimus] (max concentration tested 100 nM) | 55.7
O=C(NC1CCNCC1)c1n[nH]cc1NC(=O)c1c(Cl)cccc1Cl [AT7519] (max concentration tested 10000 nM) | -6.6
COc1cc2c(Oc3ccc(NC(=O)C4(C(=O)Nc5ccc(F)cc5)CC4)cc3F)ccnc2cc1OCCCN1CCOCC1 [Foretinib] (max concentration tested 1000 nM) | -8.07
C1=N/C2=N/c3ccc(OCCN4CCCC4)c(c3)COC/C=C/COCc3cccc(c3)C(=C1)N2 [Pacritinib] (max concentration tested 10000 nM) | 13.1
COc1cc2nccc(Oc3ccc(NC(=O)C4(C(=O)Nc5ccc(F)cc5)CC4)cc3)c2cc1OC [Cabozantinib] (max concentration tested 1000 nM) | -1.21
C[C@]12C=CC(=O)C=C1CC[C@@H]1[C@@H]2C(=O)C[C@@]2(C)[C@H]1CC[C@]2(O)C(=O)CO [Prednisone] (max concentration tested 10000 nM) | -10.6
CC(C)N(CCCNC(=O)Nc1ccc(C(C)(C)C)cc1)C[C@H]1O[C@@H](n2cc(Br)c3c(N)ncnc32)[C@H](O)[C@@H]1O [SGC0946] (max concentration tested 10000 nM) | 5.77
CNNCc1ccc(C(=O)NC(C)C)cc1 [Procarbazine] (max concentration tested 10000 nM) | -1.35
COc1ccc(COc2cc3oc(=O)c4cc(C(C)O)ccc4c3cc2OC)cc1 (stereo unspecified) [Palomid-529] (max concentration tested 10000 nM) | -0.12
